Source: the supplement of paper PMC10567573

Readings of protein stability index for the listed variants
B1: TRIM35 (parent)
chain: PTCPVCKDRASPADLRTNHTLNNL

Variants of: B1
Assay: protein stability index of a GFP-peptide fusion (GPS, HEK-293T) (PSI 1-6); higher = more stable;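 further: lentivirally expressed fusions sorted by FACS into six bins by GFP to DsRed ratio, PSI derived from sequencing read proportions per bin multiplied by bin number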
Settings: c terminus: a fixed tail appended
MEASUREMENT TYPE: protein stability index

1) C6E 4.64
2) S11R 2.72
3) N23W 2.09
4) P4E 3.42
5) L24D 4.37
6) T2I 2.71
7) L24N 3.91
8) T20D 3.76
9) R16D 3.91
10) D8R 2.02
11) T2A 3.67
12) K7G 2.72
13) P4W 2.58
14) L24Y 2.76
15) L21F 2.62
16) S11E 3.51
17) K7A 3.19
18) T2H 2.82
19) N22G 3.39
20) H19K 3.21
21) C3D 4.75
22) D8A 1.94
23) N18Q 3.3
24) T17W 2.35
25) L21P 3.39
26) C6M 4.22
27) N23Y 1.88
28) S11I 2.97
29) N23L 2.28
30) P12S 2.95
31) P1G 2.17
32) P4M 3.16
33) P12C 2.58
34) A10G 2.88
35) R16C 3.89
36) V5C 3.15
37) L15D 3.73
38) D8F 1.71
39) A10M 2.72
40) R9S 3.5
41) T20Y 2.74
42) C6S 4.39
43) P4C 2.79
44) P4D 3.71
45) T2V 3.82
46) T20K 2.81
47) T17E 3.29
48) R9D 3.99
49) D8S 2.45
50) V5N 3.3
51) P4A 2.72
52) A13C 3.69
53) L24S 3.79
54) C3Y 3.24
55) D8C 2.09
56) V5Y 1.91
57) H19R 3.14
58) H19L 3.02
59) N23I 2.1
60) P1M 2.62
61) S11G 2.94
62) P4T 3.3
63) T17Y 2.6
64) T20W 2.09
65) L21I 2.61
66) P1K 2.82
67) R9T 3.5
68) A10D 3.34
69) D14A 2.5
70) L24P 3.83
71) L21A 3.22
72) P1R 2.56
73) A13Q 2.55
74) N18M 2.64
75) T2W 2.2
76) R16A 3.34
77) T2S 3.24
78) V5L 2.47
79) C6P 4.09
